Sourced from BigSolDB 2.1

- details: in n-propanol, 273.15 K
outcomeMeasure: solubility (mole fraction)
API note: the answer field is a bare number with no unit suffix.

[ask] Query: solubility (mole fraction); subject: CCCSc1nc(N[C@@H]2C[C@H]2c2ccc(F)c(F)c2)c2nnn([C@@H]3C[C@H](OCCO)[C@@H](O)[C@H]3O)c2n1
[reply] 0.00212

---

- details: in ethyl acetate, 278.15 K
outcomeMeasure: solubility (mole fraction)
API note: the answer field is a bare number with no unit suffix.

[ask] Query: solubility (mole fraction); subject: CCCSc1nc(N[C@@H]2C[C@H]2c2ccc(F)c(F)c2)c2nnn([C@@H]3C[C@H](OCCO)[C@@H](O)[C@H]3O)c2n1
[reply] 0.00306

---

- details: in ethyl acetate, 273.15 K
outcomeMeasure: solubility (mole fraction)
API note: the answer field is a bare number with no unit suffix.

[ask] Query: solubility (mole fraction); subject: CCCSc1nc(N[C@@H]2C[C@H]2c2ccc(F)c(F)c2)c2nnn([C@@H]3C[C@H](OCCO)[C@@H](O)[C@H]3O)c2n1
[reply] 0.00246

---

- details: in sec-butanol, 308.15 K
outcomeMeasure: solubility (mole fraction)
API note: the answer field is a bare number with no unit suffix.

[ask] Query: solubility (mole fraction); subject: CCCSc1nc(N[C@@H]2C[C@H]2c2ccc(F)c(F)c2)c2nnn([C@@H]3C[C@H](OCCO)[C@@H](O)[C@H]3O)c2n1
[reply] 0.00992

---

- details: in isopropyl acetate, 308.15 K
outcomeMeasure: solubility (mole fraction)

[ask] Query: solubility (mole fraction); subject: CCCSc1nc(N[C@@H]2C[C@H]2c2ccc(F)c(F)c2)c2nnn([C@@H]3C[C@H](OCCO)[C@@H](O)[C@H]3O)c2n1
[reply] 0.0045

---

- details: in n-propanol, 308.15 K
outcomeMeasure: solubility (mole fraction)
API note: the answer field is a bare number with no unit suffix.

[ask] Query: solubility (mole fraction); subject: CCCSc1nc(N[C@@H]2C[C@H]2c2ccc(F)c(F)c2)c2nnn([C@@H]3C[C@H](OCCO)[C@@H](O)[C@H]3O)c2n1
[reply] 0.0165

---

- details: in n-propanol, 303.15 K
outcomeMeasure: solubility (mole fraction)
API note: the answer field is a bare number with no unit suffix.

[ask] Query: solubility (mole fraction); subject: CCCSc1nc(N[C@@H]2C[C@H]2c2ccc(F)c(F)c2)c2nnn([C@@H]3C[C@H](OCCO)[C@@H](O)[C@H]3O)c2n1
[reply] 0.0128

---

- details: in sec-butanol, 283.15 K
outcomeMeasure: solubility (mole fraction)

[ask] Query: solubility (mole fraction); subject: CCCSc1nc(N[C@@H]2C[C@H]2c2ccc(F)c(F)c2)c2nnn([C@@H]3C[C@H](OCCO)[C@@H](O)[C@H]3O)c2n1
[reply] 0.00181

---

- details: in isopropanol, 278.15 K
outcomeMeasure: solubility (mole fraction)

[ask] Query: solubility (mole fraction); subject: CCCSc1nc(N[C@@H]2C[C@H]2c2ccc(F)c(F)c2)c2nnn([C@@H]3C[C@H](OCCO)[C@@H](O)[C@H]3O)c2n1
[reply] 0.00102

---

- details: in isopropanol, 298.15 K
outcomeMeasure: solubility (mole fraction)
API note: the answer field is a bare number with no unit suffix.

[ask] Query: solubility (mole fraction); subject: CCCSc1nc(N[C@@H]2C[C@H]2c2ccc(F)c(F)c2)c2nnn([C@@H]3C[C@H](OCCO)[C@@H](O)[C@H]3O)c2n1
[reply] 0.00415
